Molecular target: KIAA1363 (Mus musculus, UniProt Q8BLF1)
Construct: ABPP analysis of KIAA1363 activity in mouse brain membrane proteome; from tissue; host or cells: mouse brain (membrane fraction)
Sequence (Q8BLF1 whole entry): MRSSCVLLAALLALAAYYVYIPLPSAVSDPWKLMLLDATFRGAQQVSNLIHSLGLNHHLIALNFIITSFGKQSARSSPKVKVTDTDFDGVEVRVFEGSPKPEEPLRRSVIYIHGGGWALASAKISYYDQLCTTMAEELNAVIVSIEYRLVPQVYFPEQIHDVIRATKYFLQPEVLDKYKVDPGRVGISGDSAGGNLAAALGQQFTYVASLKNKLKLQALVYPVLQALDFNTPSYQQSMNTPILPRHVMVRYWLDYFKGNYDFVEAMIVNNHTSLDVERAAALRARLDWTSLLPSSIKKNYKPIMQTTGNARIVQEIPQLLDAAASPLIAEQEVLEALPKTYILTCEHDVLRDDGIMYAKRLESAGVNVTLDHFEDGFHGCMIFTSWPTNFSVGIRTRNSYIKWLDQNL
Assay: Gel-based competitive ABPP of KIAA1363 in mouse brain membrane proteome (FP-rhodamine)
Type: biochemical
Conditions: mouse brain membrane proteome; inhibitor 30 min before FP-rhodamine (1 μM, 30 min); averages of three replicates; read-out: IC50 (KIAA1363)
Experimental: In various embodiments, the invention provides a method of inhibiting a serine hydrolase, comprising contacting the hydrolase with a compound of formula (I), e.g., a compound selected from set of compounds shown in Table 1, below. […] Tissues were Dounce-homogenized in PBS, pH 7.4, followed by a low-speed spin (1,400 g, 5 min) to remove debris. […] Total protein concentration in each fraction was determined using a protein assay kit (Bio-Rad). […]
pIC50: −log10 of the molar value.
QUANTITY NAME: pIC50

The following compounds have reported results that may help.
O=C(NCCc1ccc(C(F)(F)F)cc1)Oc1ccc(-n2cccc2)cc1
< 4.30
CCOc1ccccc1OC(=O)NCCc1cccs1
< 5.00
COc1cccc(CCNC(=O)Oc2ccc(-n3cccc3)cc2)c1
< 5.00

// pIC50 value for Cc1ccc2ccccc2c1OC(=O)NCc1ccc(OC(F)(F)F)cc1 : < 5.00

// COc1ccc(CNC(=O)Oc2c(C)ccc3ccccc23)cc1 : pIC50 value = < 5.00

Form field pIC50, entry CCCCc1ccc(CNC(=O)Oc2ccccc2OCC)cc1 [JW409, 2-ethoxyphenyl 4-butylbenzylcarbamate] : < 4.30
